Test system: blackgrass
Test: Test B pre/postemergence blackgrass
Assay type: in vivo, Alopecurus myosuroides
Conditions: Preemergence, Rate 250 g/ha; scale of 0 to 10 where 0 is no effect and 10 is complete control
# Plant response rating, Blackgrass annotations
Keep it simple and answer with nothing but the number.

The following compounds have reported results that may help.
[[record]]
compound = "CCN(CC)C(=O)n1oc(=O)n(-c2c(C)cccc2C)c1=O [Compound 2]"
value_observed = 0

[[record]]
compound = "CC(C)N(C(=O)n1oc(=O)n(C2CCCCC2)c1=O)c1ccccc1 [Compound 112]"
value_observed = 2


--- query ---
Entry under test: CC(C)N(C(=O)n1oc(=O)n(-c2ccccc2C(F)(F)F)c1=O)c1ccc(F)cc1 [Compound 15] . Its Plant response rating, Blackgrass was 0

----------
# Nutsedge plant response rating annotations
Test system: purple nutsedge
Experiment: Test B pre/postemergence purple nutsedge
Format: in vivo, Cyperus rotundus
Conditions: Preemergence, Rate 500 g/ha; scale of 0 to 10 where 0 is no effect and 10 is complete control
Keep it simple and answer with nothing but the number.

The following compounds have reported results that may help.
[[record]]
compound = "CCC=CCn1c(=O)on(C(=O)N(c2ccc(Cl)cc2)C(C)C)c1=O"
value_observed = 0

[[record]]
compound = "CC(C)N(C(=O)n1oc(=O)n(Cc2nnsc2Cl)c1=O)c1ccccc1"
value_observed = 0

[[record]]
compound = "CC(C)N(C(=O)n1oc(=O)n(C2CCCCCC2)c1=O)c1ccc(F)cc1F"
value_observed = 0

[[record]]
compound = "CC(C)N(C(=O)n1oc(=O)n(CC2OCCO2)c1=O)c1ccc(F)cc1F"
value_observed = 9

[[record]]
compound = "CC(C)N(C(=O)n1oc(=O)n(CC(=O)N(C)C)c1=O)c1ccc(F)cc1"
value_observed = 2


--- query ---
Entry under test: CC(C)N(C(=O)n1oc(=O)n(C2CCCO2)c1=O)c1ccc(F)cc1 (stereo not drawn) . Its Nutsedge plant response rating was 0

----------
System: blackgrass
Assay: Test B pre/postemergence blackgrass
Type: in vivo, Alopecurus myosuroides
Settings: Preemergence, Rate 125 g/ha; scale of 0 to 10 where 0 is no effect and 10 is complete control
# Blackgrass plant response rating annotations
Keep it simple and answer with nothing but the number.

[[record]]
compound = "CCOP(=O)(OCC)C(C)n1c(=O)on(C(=O)N(c2ccc(F)cc2)C(C)C)c1=O (stereo not shown)"
value_observed = 0

[[record]]
compound = "COCCn1c(=O)on(C(=O)N(c2ccccc2)C(C)C)c1=O"
value_observed = 7

[[record]]
compound = "COC(=O)C(C)n1c(=O)on(C(=O)N(c2ccc(Cl)cc2)C(C)C)c1=O (stereo not shown)"
value_observed = 0


Entry under test: CC(C)N(C(=O)n1oc(=O)n(CC(=O)N(C)C)c1=O)c1ccc(F)cc1 . Its Blackgrass plant response rating was 7

----------
# Plant response rating, Blackgrass annotations
Test system: blackgrass
Experiment: Test E blackgrass
Type: in vivo, Alopecurus myosuroides
Details: Preemergence; Rate 500 g/ha; 0 to 100 scale where 0 is no effect and 100 is complete control
Keep it simple and answer with nothing but the number.

[[record]]
compound = "CC(=O)OCCCCn1c(=O)on(C(=O)N(c2ccc(F)cc2)C(C)C)c1=O [Compound 211]"
tgt = "blackgrass"
value_observed = 50


Entry under test: CC(C)N(C(=O)n1oc(=O)n(-c2ccc(OC(F)(F)F)cc2)c1=O)c1ccc(F)cc1 [Compound 202] . Its Plant response rating, Blackgrass was 50

Entry under test: Cc1nsc(C)c1-n1c(=O)on(C(=O)N(c2ccc(F)cc2)C(C)C)c1=O [Compound 157] . Its Plant response rating, Blackgrass was 40

Entry under test: CC(C)N(Cc1ccccc1)C(=O)n1oc(=O)n(C(C)C)c1=O [Compound 165] . Its Plant response rating, Blackgrass was 60

Entry under test: CC(C)N(C(=O)n1oc(=O)n([C@@H](C)c2ccccc2)c1=O)c1ccc(Cl)cc1 [Compound 174] . Its Plant response rating, Blackgrass was 50

----------
Test system: sugar beet
Experiment: Test B pre/postemergence sugar beet
Assay type: in vivo, Beta vulgaris
Conditions: Preemergence, Rate 250 g/ha; scale 0 to 10 (0 no effect, 10 complete control)
# Plant response rating, Sugarbeets annotations
Keep it simple and answer with nothing but the number.

[[record]]
molecule = "COC(=O)C(C)n1c(=O)on(C(=O)N(c2ccc(F)cc2)C(C)C)c1=O (stereo not shown) [Compound 616]"
value_observed = 0

[[record]]
molecule = "C#CC(C=C(C)C)n1c(=O)on(C(=O)N(c2ccccc2)C(C)C)c1=O (stereo not shown) [Compound 652]"
value_observed = 0

[[record]]
molecule = "CCOP(=O)(OCC)C(C)n1c(=O)on(C(=O)N(c2ccc(F)cc2)C(C)C)c1=O (stereo not shown) [Compound 617]"
value_observed = 0


--- query ---
Entry under test: CC(C)N(C(=O)n1oc(=O)n(CCF)c1=O)c1ccc(Cl)cc1 [Compound 668] . Its Plant response rating, Sugarbeets was 6

----------
System: cocklebur
Assay: Test B pre/postemergence cocklebur
Assay type: in vivo, Xanthium strumarium
Details: Postemergence, Rate 500 g/ha; scale of 0 to 10 where 0 is no effect and 10 is complete control
Procedure: […] At the same time, these crop and weed species were also treated with postemergence applications of test chemicals formulated in the same manner. […] Treated plants and controls were maintained in a greenhouse for twelve to sixteen days, after which all species were compared to controls and visually evaluated. […]
MEASUREMENT_KIND: Plant response rating, Cocklebur
Keep it simple and answer with nothing but the number.

The following molecules have reported results that may help.
[[record]]
molecule = "CC(C)N(C(=O)n1oc(=O)n(CC(=O)C2CC2)c1=O)c1ccc(Cl)cc1"
measurement_kind = "Plant response rating, Cocklebur"
value_observed = 2

[[record]]
molecule = "Cc1noc(C)c1Cn1c(=O)on(C(=O)N(c2ccccc2)C(C)C)c1=O"
measurement_kind = "Plant response rating, Cocklebur"
value_observed = 2

[[record]]
molecule = "COC(=O)C(C)n1c(=O)on(C(=O)N(c2ccc(F)cc2)C(C)C)c1=O (stereo not shown)"
measurement_kind = "Plant response rating, Cocklebur"
value_observed = 0


--- query ---
Entry under test: CC(C)N(C(=O)n1oc(=O)n(CC(=O)C(F)(F)F)c1=O)c1ccc(F)cc1F . Its Plant response rating, Cocklebur was 0

----------
Test system: crabgrass
Assay: Test B pre/postemergence crabgrass
Assay type: in vivo, Digitaria sanguinalis
Conditions: Postemergence, Rate 250 g/ha; scale 0 to 10, 0 no effect, 10 complete control
Respond with Met for Crabgrass plant response rating values of 4 and above, Not met for values below.

Example entries begin here.
[[record]]
compound = "COc1ccccc1Cn1c(=O)on(C(=O)N(c2ccccc2)C(C)C)c1=O [Compound 104]"
label_value = "Met"

[[record]]
compound = "CCN(CC)C(=O)n1oc(=O)n(-c2c(C)cccc2C)c1=O [Compound 2]"
label_value = "Not met"

[[record]]
compound = "COc1ccc(-n2c(=O)on(C(=O)N(c3ccc(F)cc3F)C(C)C)c2=O)c(OC)c1 [Compound 32]"
label_value = "Not met"

[[record]]
compound = "Cc1ccccc1-n1c(=O)on(C(=O)N(c2ccc(F)c(F)c2)C(C)C)c1=O [Compound 48]"
label_value = "Not met"

[[record]]
compound = "COc1ccccc1-n1c(=O)on(C(=O)N(c2ccc(F)cc2)C(C)C)c1=O [Compound 30]"
label_value = "Met"

[[record]]
compound = "CC(C)N(C(=O)n1oc(=O)n(-c2ccc(Cl)cc2Cl)c1=O)c1ccc(F)cc1 [Compound 7]"
label_value = "Not met"

[[record]]
compound = "CC(C)N(C(=O)n1oc(=O)n(Cc2cccs2)c1=O)c1ccc(F)cc1F [Compound 86]"
label_value = "Met"

[[record]]
compound = "CC(C)N(C(=O)n1oc(=O)n(-c2ccccc2)c1=O)c1ccc(F)cc1 [Compound 38]"
label_value = "Met"


Could you please find out whether CC(C)N(C(=O)n1oc(=O)n(-c2c(Cl)cccc2Cl)c1=O)c1ccc(F)cc1 [Compound 19] has Crabgrass plant response rating that meets 4 or exceeds it?
Not met

----------
Tested on: crabgrass
Assay: Test B pre/postemergence crabgrass
Format: in vivo, Digitaria sanguinalis
Settings: Preemergence, Rate 500 g/ha; scale of 0 to 10 where 0 is no effect and 10 is complete control
Note to self: use true (1) only for Plant response rating, Crabgrass readings below 2; a reading exactly at 2 still gets false (0).

Example entries begin here.
[[record]]
molecule = "COCCn1c(=O)on(C(=O)N(c2ccccc2)C(C)C)c1=O [Compound 631]"
label_value = "false (0)"

[[record]]
molecule = "Cc1ccccc1N(C(=O)n1oc(=O)n(-c2ccccc2C)c1=O)C(C)C [Compound 236]"
label_value = "false (0)"

[[record]]
molecule = "CCC(C)n1c(=O)on(C(=O)N(c2ccccc2)C(C)C)c1=O (stereo not drawn) [Compound 612]"
label_value = "false (0)"

[[record]]
molecule = "COC(=O)C(C)n1c(=O)on(C(=O)N(c2ccc(F)cc2)C(C)C)c1=O (stereo not drawn) [Compound 616]"
label_value = "true (1)"

[[record]]
molecule = "CCCCc1ccc(N(C(=O)n2oc(=O)n(-c3ccccc3C)c2=O)C(C)C)cc1 [Compound 229]"
label_value = "true (1)"


Please look at the following molecule next.
Lab note: Plant response rating, Crabgrass threshold 2. Does this molecule come in strictly under it? CC(C)N(C(=O)n1oc(=O)n(C[Si](C)(C)C)c1=O)c1ccc(F)cc1 [Compound 294]
false (0)
